Source listed as ChEMBL document CHEMBL5331140.

# System under test: Cytochrome P450 3A4 (Homo sapiens, UniProt P08684)
# Sequence (P08684 whole entry): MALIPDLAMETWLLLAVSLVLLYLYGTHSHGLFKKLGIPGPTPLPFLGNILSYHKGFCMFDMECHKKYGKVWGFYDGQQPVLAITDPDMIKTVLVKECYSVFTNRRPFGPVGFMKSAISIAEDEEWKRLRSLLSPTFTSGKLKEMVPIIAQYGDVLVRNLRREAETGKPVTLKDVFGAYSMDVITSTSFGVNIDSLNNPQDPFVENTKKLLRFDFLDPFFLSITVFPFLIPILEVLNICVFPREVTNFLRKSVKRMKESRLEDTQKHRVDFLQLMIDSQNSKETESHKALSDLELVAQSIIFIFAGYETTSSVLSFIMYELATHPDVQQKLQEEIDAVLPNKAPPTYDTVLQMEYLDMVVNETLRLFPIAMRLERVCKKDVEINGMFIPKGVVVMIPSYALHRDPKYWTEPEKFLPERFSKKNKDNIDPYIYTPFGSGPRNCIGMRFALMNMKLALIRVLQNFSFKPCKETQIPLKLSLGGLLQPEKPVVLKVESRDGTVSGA
pIC50: −log10 of the molar value.
Readout label: pIC50

Task: What is its pIC50 for Cytochrome P450 3A4 (Homo sapiens, UniProt P08684)? Entry: Nc1ncc(-c2cn(C34CC(F)(C3)C4)c([C@@H](O)C(F)(F)F)n2)cc1OC(F)(F)F
Result: < 5.00

----------
Below, each entry is listed alongside its reported CLint scaled at 1 µM.
# Assay notes: Metabolic stability in rat liver microsomes assessed as intrinsic clearance at 1 uM in presence of NADPH regenerating system measured for 45 mins by LC-MS/MS analysis
# Assay type: ADME, Microsome
# Test parameters: read-out: CLH
A number alone suffices; assume mL/min/kg.

Observe how each entry below is paired with its result.
[[record]]
smiles = "CC(C)c1nc(-c2cnc(N)c(C(F)(F)F)c2)cn1C1CCC1"
test_value = 133

[[record]]
smiles = "CC(C)c1nc(-c2cnc(N)c(C(F)(F)F)c2)cn1C12CC(C1)C2"
test_value = 69

[[record]]
smiles = "Nc1ncc(-c2cn(C34CC(F)(C3)C4)c([C@@H](O)C(F)(F)F)n2)cc1OC(F)(F)F"
test_value = 16

[[record]]
smiles = "CC(C)Cc1nc(-c2cnc(N)c(C(F)(F)F)c2)cn1C12CC(N3CCOCC3)(C1)C2"
test_value = 11


Moving on to the next molecule.
Task: Returns the measured CLint scaled at 1 µM for the input molecule. Input: CC(C)c1nc(-c2cnc(N)c(C(F)(F)F)c2)cn1C1CCCC1
Result: 238

----------
# Assay notes: Cmax in Sprague-Dawley rat at 3 mg/kg, po or 1 mg/kg, iv measured for 24 hrs by LC-MS/MS analysis
# Assay type: ADME, organism-based
# Parameters: time 24 hrs, dose 3 mg/kg, route po
# Test parameters: in vivo
Readout label: Cmax (nM)
A number alone suffices; assume nM.

Task: Returns the measured Cmax for the input compound. Input: Nc1ncc(-c2cn(C34CC(F)(C3)C4)c([C@@H](O)C(F)(F)F)n2)cc1OC(F)(F)F
Result: 1300

----------
# Assay notes: Plasma clearance in C57BL/6 mouse at 0.3 mg/kg, iv administered via tail vein and measured for 24 hrs by LC-MS/MS analysis
# Type: ADME, organism-based
Readout label: clearance
The reply must contain the numeric value and, after it, the unit.

Task: Returns the measured clearance for the input compound. Input: Nc1ncc(-c2cn(C34CC(F)(C3)C4)c([C@@H](O)C(F)(F)F)n2)cc1OC(F)(F)F
Result: 4.3 mL/min/kg

----------
# Assay notes: Cmax in Beagle dog at 1 mg/kg, po or 0.3 mg/kg, iv measured for 24 hrs by LC-MS/MS analysis
# Type: ADME, organism-based, Canis lupus familiaris
# Parameters: time 24 hrs, dose 1 mg/kg, route po
# Test parameters: in vivo
Readout label: Cmax (nM)
A number alone suffices; assume nM.

Task: Returns the measured Cmax for the input compound. Input: Nc1ncc(-c2cn(C34CC(F)(C3)C4)c([C@@H](O)C(F)(F)F)n2)cc1OC(F)(F)F
Result: 1200

----------
# Assay notes: Ratio of unbound drug concentration in C57BL/6 mouse brain to plasma at 0.3 mg/kg, iv measured for 24 hrs by LC-MS/MS analysis
# Assay type: ADME, organism-based
# Test parameters: brain and plasma, read-out: K(p,uu,brain)
Readout label: Kp uu at 24 h
// print number alone

Observe how each entry below is paired with its result.
[[record]]
smiles = "Nc1ncc(-c2cn(C34CC(C3)C4)c([C@@H](O)C(F)(F)F)n2)cc1OC(F)(F)F"
readout_label = "Kp uu at 24 h"
test_value = 1.1

[[record]]
smiles = "CC(C)c1nc(-c2cnc(N)c(OC(F)(F)F)c2)cn1C12CC(N3CCOCC3)(C1)C2"
readout_label = "Kp uu at 24 h"
test_value = 0.6

[[record]]
smiles = "CC(C)[C@H](O)c1nc(-c2cnc(N)c(OC(F)(F)F)c2)cn1C12CC(N3CCOCC3)(C1)C2"
readout_label = "Kp uu at 24 h"
test_value = 0.2


Moving on to the next molecule.
Task: Returns the measured Kp uu at 24 h for the input molecule. Input: CC(C)c1nc(-c2cnc(N)c(C(F)(F)F)c2)cn1C12CC(N3CCOCC3)(C1)C2
Result: 0.14
